Target: PPARγ (Homo sapiens)
Construct: gene PPARG
Sequence (P37231 1-505): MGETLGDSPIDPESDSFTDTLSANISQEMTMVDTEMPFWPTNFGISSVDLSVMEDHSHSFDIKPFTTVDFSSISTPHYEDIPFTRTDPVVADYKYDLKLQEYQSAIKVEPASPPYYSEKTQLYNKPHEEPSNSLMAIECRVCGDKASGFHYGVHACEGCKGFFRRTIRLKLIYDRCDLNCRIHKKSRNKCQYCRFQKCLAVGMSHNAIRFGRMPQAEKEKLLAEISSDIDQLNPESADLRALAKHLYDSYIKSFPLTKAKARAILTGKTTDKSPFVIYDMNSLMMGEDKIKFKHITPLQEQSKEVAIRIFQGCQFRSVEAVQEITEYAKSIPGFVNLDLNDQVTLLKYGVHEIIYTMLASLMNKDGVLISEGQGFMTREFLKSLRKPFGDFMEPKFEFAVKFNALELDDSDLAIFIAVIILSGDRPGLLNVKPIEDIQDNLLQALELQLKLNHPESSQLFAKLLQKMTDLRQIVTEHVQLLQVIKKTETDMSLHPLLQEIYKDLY
Experiment: PolarScreen PPAR Gamma Competitor Assay, Green (fluorescence polarization competition)
Format: binding
Settings: read-out: EC50 (mean ± SD μM)
Measured Endpoint: EC50

> print(dat)
                                smiles.code         tested.target  reading
1  O=C(/C=C/c1ccc(O)c(O)c1)O[C@H](Cc1ccc(O)c(O)c1)C(=O)O  PPARγ (Homo sapiens)  55.8 µM

====

biological target: PTGS2/COX2 (Prostaglandin G/H synthase 2) (Ovis aries); assay: Colorimetric COX (ovine) inhibitor screening assay kit (Cayman); type: biochemical; conditions: read-out: IC50 (mean ± SD μM)
Sequence (P79208 17-603): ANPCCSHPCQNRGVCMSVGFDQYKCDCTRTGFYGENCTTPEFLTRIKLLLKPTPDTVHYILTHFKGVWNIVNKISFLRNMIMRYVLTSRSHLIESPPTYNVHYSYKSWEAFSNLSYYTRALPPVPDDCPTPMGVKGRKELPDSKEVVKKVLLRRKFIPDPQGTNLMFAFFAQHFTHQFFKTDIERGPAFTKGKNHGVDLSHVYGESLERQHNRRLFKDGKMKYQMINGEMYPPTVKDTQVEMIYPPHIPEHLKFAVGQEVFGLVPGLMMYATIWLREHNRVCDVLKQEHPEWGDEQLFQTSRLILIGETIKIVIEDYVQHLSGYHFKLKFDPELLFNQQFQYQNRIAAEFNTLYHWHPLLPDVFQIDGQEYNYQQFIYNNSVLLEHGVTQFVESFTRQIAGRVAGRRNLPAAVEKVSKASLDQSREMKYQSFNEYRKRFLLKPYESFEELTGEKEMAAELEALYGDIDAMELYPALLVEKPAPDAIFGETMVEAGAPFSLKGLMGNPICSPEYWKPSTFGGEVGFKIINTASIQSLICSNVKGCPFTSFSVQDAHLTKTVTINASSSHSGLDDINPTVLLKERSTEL
Measured Endpoint: IC50 (µM)

> print(dat)
                                smiles.code  measured.endpoint  reading
1  O=C(/C=C/c1ccc(O)c(O)c1)O[C@H](Cc1ccc(O)c(O)c1)C(=O)O               IC50      170
